- Test system: HT-29
- test name: Ratio of 5-fluorouracil IC50 to compound IC50 for human HT-29 cells after 48 hrs by sulforhodamine B assay
- Type: functional
Assignment: determine reported Ratio IC50 for the given compounds.
Please reply with the value in numeric form only.

Looking up "O=C1/C(=C\c2ccc(O)cc2)CN(C(=O)CC(=O)N2C/C(=C\c3ccc(O)cc3)C(=O)/C(=C/c3ccc(O)cc3)C2)C/C1=C\c1ccc(O)cc1" , I see its Ratio IC50 listed as 14

Looking up "COc1cc(/C=C2\CN(C(=O)C(=O)N3C/C(=C\c4cc(OC)c(OC)c(OC)c4)C(=O)/C(=C/c4ccc(OC)c(OC)c4OC)C3)C/C(=C\c3cc(OC)c(OC)c(OC)c3)C2=O)cc(OC)c1OC" , I see its Ratio IC50 listed as 24

Looking up "COc1ccc(/C=C2/CN(C(=O)CC(=O)N3C/C(=C\c4ccc(OC)c(OC)c4)C(=O)/C(=C/c4ccc(OC)c(OC)c4)C3)C/C(=C\c3ccc(OC)c(OC)c3)C2=O)cc1OC" , I see its Ratio IC50 listed as 20

Looking up "COc1ccc(/C=C2\CN(C(=O)C(=O)N3C/C(=C\c4ccc(OC)c(OC)c4)C(=O)/C(=C/c4ccc(OC)c(OC)c4)C3)C/C(=C\c3ccc(OC)c(OC)c3)C2=O)cc1OC" , I see its Ratio IC50 listed as 11

Looking up "COc1ccc(/C=C2/CN(C(=O)CC(=O)N3C/C(=C\c4ccc(OC)cc4)C(=O)/C(=C/c4ccc(OC)cc4)C3)C/C(=C\c3ccc(OC)cc3)C2=O)cc1" , I see its Ratio IC50 listed as 8
